Listed compounds paired with reported melting point

Consider the following illustrative entries.
compound	result
Cc1ccc(-c2nnc(N)[nH]2)s1	222 to 224 °C
NS(=O)(=O)N1CCN(Cc2ccccc2)CC1	147 to 149 °C
CCOc1ccc2ncc(C#N)c(Cl)c2c1	125 to 127 °C
O=Cc1cnc(-c2cccnc2)s1	139 to 141 °C
CCOC(=O)c1sc2nc(CCl)[nH]c(=O)c2c1C	190 to 192 °C
Nc1cc(Cl)c(NC(=O)c2ccncc2)c(Cl)c1	233 to 235 °C

Suppose we examine the compound Cc1n[nH]c(C)c1C1COCCN1 (stereo unspecified) ; what melting point value has been reported?
127 to 129 °C

Need melting point, item "CN(C)C=C(Br)C=O"
48 to 50 °C

Item under review: "Nc1cc(Cl)cc([N+](=O)[O-])c1O" . Reported melting point?
152 to 154 °C

Find the recorded melting point belonging to "Cc1nc(N)n[nH]1" and report it.
142 to 144 °C

I'd like to know its melting point. The compound in question is "Cc1ccsc1C(=O)Nc1ccc2c(c1)CCCN2"
135 to 137 °C

Can you look up the measured melting point of Cc1ccccc1C1(C)NC(=O)NC1=O (stereo unspecified) for me?
169 to 171 °C
